# target or system: human DLL3 protein expressed on CHO-K1 recombinant cells (human DLL3 extracellular segment fused to EpCAM transmembrane and intracellular regions) (human) (UniProt Q9NYJ7)
# Sequence (Q9NYJ7 other isoform, or with tags, fused parts or gaps limits assumed): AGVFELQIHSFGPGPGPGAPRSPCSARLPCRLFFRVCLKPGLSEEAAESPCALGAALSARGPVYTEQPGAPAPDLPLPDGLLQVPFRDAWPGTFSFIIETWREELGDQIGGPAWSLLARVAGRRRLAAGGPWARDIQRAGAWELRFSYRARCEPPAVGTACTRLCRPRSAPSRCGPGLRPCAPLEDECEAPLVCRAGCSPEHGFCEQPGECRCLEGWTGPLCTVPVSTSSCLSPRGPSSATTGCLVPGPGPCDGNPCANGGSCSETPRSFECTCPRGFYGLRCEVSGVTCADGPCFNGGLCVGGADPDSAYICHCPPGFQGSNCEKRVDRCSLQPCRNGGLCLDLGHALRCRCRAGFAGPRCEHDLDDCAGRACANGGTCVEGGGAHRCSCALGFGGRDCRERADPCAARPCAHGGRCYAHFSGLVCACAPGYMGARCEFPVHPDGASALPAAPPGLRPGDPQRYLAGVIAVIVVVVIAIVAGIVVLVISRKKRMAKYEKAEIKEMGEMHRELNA
# assay protocol: FACS, CHO-K1 hDLL3 cells, 100 nM antibody
measurement kind: MFI (MFI)
Kindly provide the numeric value in MFI only, without the unit symbol.

What value of MFI has been recorded for this entry: Hab008L3H2a-hFc (scFv, part only; not given: VL-VH linker and human IgG1 Fc, V domains shown, not shown: another chain or arm of the molecule; a dimerising Fc or GST; small tags and cut ends) VL: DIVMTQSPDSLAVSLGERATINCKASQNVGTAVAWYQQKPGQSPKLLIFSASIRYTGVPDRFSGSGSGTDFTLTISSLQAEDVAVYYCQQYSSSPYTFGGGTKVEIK VH: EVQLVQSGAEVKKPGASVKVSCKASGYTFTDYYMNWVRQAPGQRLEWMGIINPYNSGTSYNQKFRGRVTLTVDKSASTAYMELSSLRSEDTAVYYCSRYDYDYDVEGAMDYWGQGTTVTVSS 7600

Recorded MFI of Hab006VL1VH4-hFc (scFv, part only; not given: VL-VH linker and human IgG1 Fc, V domains shown, not shown: another chain or arm of the molecule; a dimerising Fc or GST; small tags and cut ends) VL: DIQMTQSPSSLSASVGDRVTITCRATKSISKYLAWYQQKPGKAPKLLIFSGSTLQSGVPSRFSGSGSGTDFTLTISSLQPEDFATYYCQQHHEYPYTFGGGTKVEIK VH: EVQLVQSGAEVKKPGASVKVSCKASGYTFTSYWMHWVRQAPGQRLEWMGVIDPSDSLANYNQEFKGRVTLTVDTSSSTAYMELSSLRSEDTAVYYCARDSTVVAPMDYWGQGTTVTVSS , please. 14300

Reported MFI, binder Hab008L1H2a-hFc (scFv, part only; not given: VL-VH linker and human IgG1 Fc, V domains shown, not shown: another chain or arm of the molecule; a dimerising Fc or GST; small tags and cut ends) VL: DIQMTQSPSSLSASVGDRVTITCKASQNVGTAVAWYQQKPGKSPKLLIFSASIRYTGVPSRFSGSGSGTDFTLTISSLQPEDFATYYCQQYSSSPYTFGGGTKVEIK VH: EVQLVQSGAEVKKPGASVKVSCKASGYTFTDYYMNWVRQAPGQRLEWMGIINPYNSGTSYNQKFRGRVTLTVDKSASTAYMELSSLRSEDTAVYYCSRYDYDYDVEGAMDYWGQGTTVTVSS : ____ 7690

Requested read-out: MFI. Entry: Hab013VL2VH2a-hFc (scFv, part only; not given: scFv linker and human IgG1 Fc, V domains shown, not shown: another chain or arm of the molecule; a dimerising Fc or GST; small tags and cut ends) VL: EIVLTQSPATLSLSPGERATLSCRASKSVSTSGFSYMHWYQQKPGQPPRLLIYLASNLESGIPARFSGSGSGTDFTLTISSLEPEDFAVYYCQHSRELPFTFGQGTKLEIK VH: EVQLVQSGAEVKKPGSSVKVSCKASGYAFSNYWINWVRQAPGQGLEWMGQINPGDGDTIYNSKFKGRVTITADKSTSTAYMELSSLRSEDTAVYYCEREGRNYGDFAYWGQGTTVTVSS 19500

Entry under review: Hab015VL5VH1a-hFc (scFv, part only; not given: scFv linker and human IgG1 Fc, V domains shown, not shown: another chain or arm of the molecule; a dimerising Fc or GST; small tags and cut ends) VL: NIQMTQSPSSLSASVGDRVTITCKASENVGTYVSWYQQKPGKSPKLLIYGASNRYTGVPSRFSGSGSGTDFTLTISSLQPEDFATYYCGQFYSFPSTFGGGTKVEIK VH: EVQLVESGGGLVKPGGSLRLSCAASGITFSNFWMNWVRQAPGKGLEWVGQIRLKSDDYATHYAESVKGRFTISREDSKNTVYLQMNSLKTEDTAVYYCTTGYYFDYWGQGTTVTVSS . Reported MFI? 12000

Which MFI reading was recorded for the binder Hab008L3H5-hFc (scFv, part only; not given: scFv linker and human IgG1 Fc, V domains shown, not shown: another chain or arm of the molecule; a dimerising Fc or GST; small tags and cut ends) VL: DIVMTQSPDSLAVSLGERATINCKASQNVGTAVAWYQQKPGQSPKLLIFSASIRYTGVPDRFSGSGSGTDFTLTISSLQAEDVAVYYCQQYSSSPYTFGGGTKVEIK VH: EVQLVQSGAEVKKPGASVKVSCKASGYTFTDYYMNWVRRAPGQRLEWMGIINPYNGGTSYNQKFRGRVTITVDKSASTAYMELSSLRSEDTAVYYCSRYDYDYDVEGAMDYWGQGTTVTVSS ? 8950
